- Tested on: K4 kissing-loop RNA reporter
- TEST_DETAILS: apparent KD of K4 kissing-loop reporter; higher = weaker reporter binding
- CONDITION_LABEL: Eterna round: R107; input ligand: FMN 200 uM
Hi there, I'd appreciate the recorded apparent KD of K4 kissing-loop reporter for every entry that follows.
Numbers only, in nM.

Sample records with apparent KD of K4 kissing-loop reporter:
ENTRY_SEQUENCE	UNIT_OF_MEASUREMENT	apparent KD of K4 kissing-loop reporter
UUUUAAAUGUCUGAUACCAGAGAAAAUAUAUGUAGUGAUGUUACAUACAAAUUUAAUAAGCUCCCUUGGCAGCAGUAUGAAUUUU [AstrosExc-TheB#15]	nM	44.6
UUGAGCCUGACGAAAGUCAGGCUCUGCGAGCGAGGACCGGUACGGCCGCCACUCGGUGCAGUGAUGUUGCAUGGCCGCAAGGCCG [#2 Exclusion - Tryptophan A Attempt #14 (HarryS)]	nM	309
AGUACGGUGCCGUUCAGAUCAACGUAUGAUACCAGCUCGUAUAUUAGCCCUUGGCAGCAUCCGAGUGAUGUUCGGAUUGUGCCAC [theeternabot_exclusion_KL_Theo_A_45]	nM	113
UGUCAUUGGUCUGAUACCAGCUUGAUCGGAAAACGAUCUGCUGGAGUGAUGUUCCAAUAAAGCCCUUGGCAGCAGACCGAUGACU [TheoBS 7 #SwitchBubble #StaticStem]	nM	854
CGCAGUGAUGUUGCGAGUAACUACAGGGAAGGAGCGCGGUAGUCCGCAGGUAGGUCGCCCACGCAGUGAUGUUGCGUCAUAGGGU [Exclusion Arg A GF7]	nM	110
AGAGUUAUGCGAGGAUAUGCAGUUAGUACUCAAAGAGUACUAACGCAGAGUGAUGUUCUGUGAAAUGCAGAAGGUGCAUAACUCA [Omei KL FMN B SS B v5]	nM	157
AGGUGGGACGUAGGAUAUCCCUAAUGAUUUACUUCCUGGUUGCUACGCUUCCAGUGAUGUUGGAAGGGAGAAGGACGGGCGAGUU [Riatbive]	nM	365
GGACAAGCAUUAGGAUAUAUAGAGCGAAACGCAAUUGAGUGAUGUUCAAAAGCAUAGGGCGAGGAAAUAGAAGGAAUGCACGGGC [Default title]	nM	192
GCAGUGAUGUUGCGGAUGUACAGUGGCGUGCGAGGACCGGUACGGCCGCCACUCGUACAGAGCCAGCUAAUACAUCGAUAGGUGA [whbob_SS_Tryp_A_m6]	nM	289
GACAGUCGGUGUUAAUGACAGUUACGCGAUACCAGCGAAACAGUACGCCCUUGGCAGCGCAGUGAUGUUGCGCGCCUAGUGUGGU [Esbiceve]	nM	99.5

Consider now this further sequence.
What is its apparent KD of K4 kissing-loop reporter for K4 kissing-loop RNA reporter? Entry: UGUACCGAGUCAGGAUAUACCGUCGAAAGACGAAAUGGAGUGAUGUUCCUUAAACUGCGAAAGCAGGUAGAAGGGACUUGGUACU [FmnBS 30 #SwitchBubble #StaticStem #DoubleMagnetSystem]
165

###

- Tested on: MS2 coat protein
- TEST_DETAILS: apparent KD of MS2 coat protein; higher = weaker reporter binding
- CONDITION_LABEL: Eterna round: R107; input ligand: tryptophan 2.4 mM
Outcome label depends on apparent KD of MS2 coat protein relative to 20 nM: at/above gives true (1), below gives false (0).

A selection of reference data follows.
ENTRY_SEQUENCE	ASSAYED_SYSTEM	GROUP_LABEL
UAUCCACAUGAGGAUCACCCAUGUAGGGAAGGAGCGGUGGAUGCACCAGGUAGGUCGCCUUGCUGAGGACAGCCGGUGGAUUCGU [Exclusion - Arginine A (Freestyle 27)]	MS2 coat protein	true (1)
GUGGGUUUGCGAAGGAGCGGGUAUGUUUUCUACUGGAUCCUAACAUGAGGAUCACCCAUGUCCCAGGUAGGUCGCGCGGGCUUGG [12.Z]	MS2 coat protein	true (1)
UGUAUGUGAUCUGAUACCAGAGAUGAUAACCUGAGGAUCACCCUGGUAAGGCGAAAGCCACUCCCUUGGCAGCAGAUCGCAUACU	MS2 coat protein	true (1)
UGUAUGGACUGAAGGAGCGCCUCAAAAUAACAUGAGGAUCACCCAUGUAAGGCGAAAGCCGGGCAGGUAGGUCGCAGUCCAUACU [ArgBX 3 #StaticStem #MS2Late]	MS2 coat protein	false (0)
AGCGAGAUCCGUGAUACCAGCUACAUGAGGAUCACCCAUGUGAGCGCGAAAGUGCUGUGUAGCCCUUGGCAGCACAGUGGAUCUC [#29 Exclusion-TheophyllineB]	MS2 coat protein	false (0)

Consider the additional sequence presented here.
Check if apparent KD of MS2 coat protein >= 20 nM (inclusive). Item: GAUGAACUAUUUGAUACCAGACUACAUGAGGAUCACCCAUGUGAGUUUAUACUUCUGUCAGUCCCUUGGCAGCAAAUAGUUUAUC [XTheo B #5]
false (0)

###

- Test system: MS2 coat protein
- TEST_DETAILS: apparent KD of MS2 coat protein, switch OFF state (with FMN for OFF switches, without FMN for ON switches); designed switch direction (-1 OFF switch, 1 ON switch): -1; higher = weaker reporter binding
- CONDITION_LABEL: FMN input: 0 or 200 uM; Eterna round: R93 (includes R88 designs)
Outcome label depends on apparent KD of MS2 coat protein relative to 30 nM: at/above gives Met, below gives Not met.

A selection of reference data follows.
ENTRY_SEQUENCE	GROUP_LABEL
AGUUGGCGAGGAUAUACAUGAGGAUCACCCAUGUGAGAGAAAAAAAGAAGAAAAAAAAGUAGAAGGCGCUGACA [Mat - Exclusion 3 - Lego mod - D43]	Met
AAGAAGUCAGGAUAUGCCAGAGAACAAGAAAGUGAAGAAUAGCAGAAGGGACAUGAGGAUCACCCAUGUAAAGA [Opal 11]	Met
AGGGAACAUGAGGAUCACCCAUGUGAGGAUAUUGAAAAGAAAAGAAAAGAAAGAAGAACAAGAAGGUACAAGAA [Meryre Pepi I]	Not met

Check if apparent KD of MS2 coat protein >= 30 nM (inclusive). Item: AAAAAGGCAGGAUAUGCAUACCCACGAAAAAAAACGCUGGGACAUGAGGAUCACCCAUGUAGAAGGGCCAAAAA [Dora Explored 11 - Jieux - Exclusion 2]
Not met

Check if apparent KD of MS2 coat protein >= 30 nM (inclusive). Item: AAAAAGUCAGGAUAUAGCAAAGGUCACGAAAGUGACAAAGGCUAGAAGGGACAUGAGGAUCACCCAUGUAAAAA [Fiskers Exclusion 4 D2]
Met

Check if apparent KD of MS2 coat protein >= 30 nM (inclusive). Item: AGAAAGACAGGAUAUACAUGAGGAUCACCCAUGUAAAAGAAAGAAAAGGGAAAGAAAAGUAGAAGGGUCAAAGA [Ruby 64]
Met

###

- Tested on: K4 kissing-loop RNA reporter;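 note: bound reporter read as fluorescence of individual clusters on recovered sequencing chips by microscopy, with normalized cluster intensities fitted with a binding model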
- TEST_DETAILS: apparent KD of K4 kissing-loop reporter; higher = weaker reporter binding
- CONDITION_LABEL: Eterna round: R107; input ligand: arginine 13.2 mM
Outcome label depends on apparent KD of K4 kissing-loop reporter relative to 200 nM: at/above gives 1 (yes), below gives 0 (no).

A selection of reference data follows.
ENTRY_SEQUENCE	ASSAYED_SYSTEM	GROUP_LABEL
AGACUUCACCGAAGGAGCGACGUGGCCUAGUGAUGUUAGGCACGAGAGAAAUCUCGUGUACGUCAGGUAGGUCGCGGUGAAGUCA [Omei KL Arginine B SS C v7]	K4 kissing-loop RNA reporter	1 (yes)
UGUAUGUGAUGUGAUACCAGUGAAGAGCCAGUGAUGUUGGUAGAACUGGUAUAUAAAUAACACCCUUGGCAGCACAAUCACGUAC [whbob_Ex_Theo_B_sa99]	K4 kissing-loop RNA reporter	1 (yes)
UGGUUAAGCAGUGAUGUUGCAAGUGAUGAUACCAGUUAAGAAGAGAACCCUUGGCAGCAUAAAGUGCGCUCUGAUGAGUGUGCUU [whbob_SS_Theo_A_w55]	K4 kissing-loop RNA reporter	0 (no)

Check if apparent KD of K4 kissing-loop reporter >= 200 nM (inclusive). Item: GCCGUACGCAUGGAUACCAGCAUCGACUCAUAUACAGUGAUGUUGUGUAAUGACCUCAUUUGCCCUUGGCAGCCAUGCGUACGGC
1 (yes)

Check if apparent KD of K4 kissing-loop reporter >= 200 nM (inclusive). Item: GUUACGCAUGGAAGGAGCGCACUCCGAUUGGGCGACGCAGUGAUGUUGUGGUUCGUUCGAAUGCAGGUAGGUCGCCAUGUGUAAC [Ex Arginine B K4 21]
0 (no)

Check if apparent KD of K4 kissing-loop reporter >= 200 nM (inclusive). Item: CGCAGUGAUGUUGCGAGUAACUACAGGGAAGGAGCGCGGUAGUCCGCAGGUAGGUCGCCCACGCAGUGAUGUUGCGUCAUAGGGU [Exclusion Arg A GF7]
0 (no)

Check if apparent KD of K4 kissing-loop reporter >= 200 nM (inclusive). Item: UGAUACCAGACGGCCGCCACUCUUGCAGUCAAAGACUGCUAAAAGGAAAUCGUCCAGUGAUGUUGGAGGACCGGGUCUGGUAUCU [TrypBX 15 #SwitchBubble #Palindromic #StaticStem]
1 (yes)

Check if apparent KD of K4 kissing-loop reporter >= 200 nM (inclusive). Item: AAGCAGUCACUCGUAACCAUCGAAGAUGGUCGAGGACCGGUACGGCCGCCACUCGGAGUGAUGUUCCGAAGACUGCAAAAUAAAA [#SwitchBubble 12]
1 (yes)

Check if apparent KD of K4 kissing-loop reporter >= 200 nM (inclusive). Item: GGAUCCACCAGUGAUGUUGGAGAAAACUCCAAGGAUAUGACGAAAGUCAGAAGGUGGUAAUAAGACGUCAAAGACGUCGGAUCCA [FmnA 19 #SwitchBubble #K4Early]
0 (no)

Check if apparent KD of K4 kissing-loop reporter >= 200 nM (inclusive). Item: UGUCAUUGGUCUGAUACCAGAAGAAUCUGGAGUGAUGUUCCAAGUCGAUCAAAAGAUCGCUUCCCUUGGCAGCAGACCGAUGACU [TheoBS 24 #SwitchBubble 13 #StaticStem]
1 (yes)

Check if apparent KD of K4 kissing-loop reporter >= 200 nM (inclusive). Item: CAUACGCAUGGAGGAUAUGAGAUUUCUCAUAUUAUUUAAUAUUCUCAGUGAUGUUGAGAAUUAAACUCAGAAGGCCAUGUGUAUG [Ex FMN B 4]
0 (no)
